Measured values drawn from patent US20240408169A1 for this set.

biological target: CyclinE1/CDK2 (Homo sapiens); construct: purchased Eurofins, discovery 14-475; experiment: Fluorescence Polarization (FP) competitive binding assay, Cyclin E1/Cdk2; settings: 10 nM Cyclin E1/Cdk2, 2 nM FAM probe; average of 2-3 independent experiments; read-out: Cyclin E FP IC50;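 note: readings taken after two-hour equilibration at room temperature in HEPES buffer with NaCl, DTT, NP-40 and BSA, IC50 fitted from eight-concentration serial dilution series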
*1 amine or outer side, *2 acyl side, *3 side chain or, on linkers, in order; H or OH if unused. Where a SMILES comes first, the peptide text is derived from it. Bridges are numbered along the chain shown (N, C = ends). [ ]: non-standard residue; d: D form. The star is where a group is joined. X128 = CC(C)C(=O)N1C2C=C(c3ccc(F)cc3C[C@@H](C(=O)[*:2])N(C)[*:1])CC1COC2; X172 = CC(=O)N1CC=C(c2ccc(F)cc2C[C@@H](C(=O)[*:2])N(C)[*:1])CC1; NMehhhLys(Me) = CN([C@@H](CCCCCCCN(C)[*:3])C(=O)[*:2])[*:1]; NMe(hhhLys) = CN([C@@H](CCCCCCCN[*:3])C(=O)[*:2])[*:1]; cBuCO(3,3-F2-1-CF3) = O=C(C1(C(F)(F)F)CC(F)(F)C1)*; Pro(trans-4-F) = O=C(O)[C@@H]1C[C@@H](F)CN1; Gly(cPr) = N[C@H](C(=O)O)C1CC1
Reported Property: IC50

- Cc1nnc(-c2ccc(Cl)cc2C[C@H]2C(=O)N(C)CCCCC=CC[C@H](N(C)C(=O)[C@@H](NC(=O)[C@@H]3C[C@@H](F)CN3C(=O)C3(C(F)(F)F)CC(F)(F)C3)C3CC3)C(=O)N[C@@H](CC(C)C)C(=O)N2C)o1: 330 nM
- CC(=O)N1CC=C(c2ccc(F)cc2C[C@H]2C(=O)NCCCCCCC[C@H](N(C)C(=O)[C@@H](NC(=O)[C@@H]3C[C@@H](F)CN3C(=O)C3(C(F)(F)F)CC(F)(F)C3)C3CC3)C(=O)N[C@@H](CC(C)C)C(=O)N2C)CC1 [Example 217] ({cBuCO(3,3-F2-1-CF3)}-[Pro(trans-4-F)][Gly(cPr)][NMe(hhhLys)]L[X172]; lactam 3-C): 760 nM
- CC(C)C[C@@H]1NC(=O)[C@@H](N(C)C(=O)[C@@H](NC(=O)[C@@H]2C[C@@H](F)CN2C(=O)C2(C(F)(F)F)CC(F)(F)C2)C2CC2)CCCCCCCN(C)C(=O)[C@H](Cc2cc(F)ccc2C2=CC3COCC(C2)N3C(=O)C(C)C)N(C)C1=O (stereo partly drawn) [Example 151] ({cBuCO(3,3-F2-1-CF3)}-[Pro(trans-4-F)][Gly(cPr)][NMehhhLys(Me)]L[X128]; lactam 3-C): 220 nM
- CC(C)C[C@@H]1NC(=O)[C@@H](N(C)C(=O)[C@@H](NC(=O)[C@@H]2C[C@@H](F)CN2C(=O)C2(C(F)(F)F)CCC2)C2CC2)CC=CCCCCN(C)C(=O)[C@H](Cc2cc(Cl)ccc2-c2cncnc2)N(C)C1=O: 1690 nM
